Structures can show the parent of a compound that is named as a salt.
OBSERVATION TYPE: melting point (°C)

COMPOUND: COC(=O)Nc1ccc(CC(=O)Nc2cccc3c2C(=O)c2c-3n[nH]c2-c2ccc(OC)cc2)cc1 [Example XXXVII]
OBSERVATION TYPE: melting point
MEASUREMENT UNITS: °C
ENDPOINT VALUE: 257
//
COMPOUND: CN(C)[C@H]1CCN(C(=O)c2ccc(-c3[nH]nc4c3C(=O)c3c(NC(=O)NN5CCOCC5)cccc3-4)s2)C1 (as salt: TFA) [Example CLXXXII]
OBSERVATION TYPE: melting point
MEASUREMENT UNITS: °C
ENDPOINT VALUE: 264
//
COMPOUND: Cc1cc(-c2[nH]nc3c2C(=O)c2c(NC(=O)NN4CCN(C)CC4)cccc2-3)c(C)s1 [Example CXXIV]
OBSERVATION TYPE: melting point
MEASUREMENT UNITS: °C
ENDPOINT VALUE: 250
//
COMPOUND: CC(C)(C)OC(=O)N1CCN(c2ccc(-c3[nH]nc4c3C(=O)c3c(NC(=O)NN5CCOCC5)cccc3-4)cc2)CC1 [Example CCX]
OBSERVATION TYPE: melting point
MEASUREMENT UNITS: °C
ENDPOINT VALUE: 242
//
COMPOUND: CO[C@H]1CC[C@H](C(=O)N2CCC(c3[nH]nc4c3C(=O)c3c(NC(=O)NN5CCOCC5)cccc3-4)CC2)CC1 (as salt: TFA) [Example CCXCII]
OBSERVATION TYPE: melting point
MEASUREMENT UNITS: °C
ENDPOINT VALUE: 246
//
COMPOUND: CC(C)(C)OC(=O)NC1CCC(C(=O)N2CCC(c3[nH]nc4c3C(=O)c3c(NC(=O)NN5CCOCC5)cccc3-4)CC2)CC1 (stereo not shown) (as salt: TFA) [Example CCLXXXV]
OBSERVATION TYPE: melting point
MEASUREMENT UNITS: °C
ENDPOINT VALUE: 210
//
COMPOUND: NC(=O)Nc1cccc2c1C(=O)c1c-2n[nH]c1-c1ccc(N2CCNCC2)cc1 (as salt: TFA) [Example CCXII]
OBSERVATION TYPE: melting point
MEASUREMENT UNITS: °C
ENDPOINT VALUE: 257
//
COMPOUND: CCC(=O)Nc1cccc2c1C(=O)c1c-2n[nH]c1-c1ccc(OC)cc1 [Example V]
OBSERVATION TYPE: melting point
MEASUREMENT UNITS: °C
ENDPOINT VALUE: 287
//
COMPOUND: O=C(Nc1cccc2c1C(=O)c1c-2n[nH]c1C1CCN(C(=O)C2CCCNC2)CC1)NN1CCOCC1 (stereo not shown) (as salt: TFA) [Example CCLXXXVII]
OBSERVATION TYPE: melting point
MEASUREMENT UNITS: °C
ENDPOINT VALUE: 169
//
COMPOUND: CC(C)(C)OC(=O)N1CCN(C(=O)c2ccc(-c3[nH]nc4c3C(=O)c3c(NC(=O)NN5CCOCC5)cccc3-4)s2)CC1 (as salt: TFA) [Example CLIV]
OBSERVATION TYPE: melting point
MEASUREMENT UNITS: °C
ENDPOINT VALUE: 225
